target_desc: CYP3A4 (Homo sapiens)
Sequence (P08684 whole entry): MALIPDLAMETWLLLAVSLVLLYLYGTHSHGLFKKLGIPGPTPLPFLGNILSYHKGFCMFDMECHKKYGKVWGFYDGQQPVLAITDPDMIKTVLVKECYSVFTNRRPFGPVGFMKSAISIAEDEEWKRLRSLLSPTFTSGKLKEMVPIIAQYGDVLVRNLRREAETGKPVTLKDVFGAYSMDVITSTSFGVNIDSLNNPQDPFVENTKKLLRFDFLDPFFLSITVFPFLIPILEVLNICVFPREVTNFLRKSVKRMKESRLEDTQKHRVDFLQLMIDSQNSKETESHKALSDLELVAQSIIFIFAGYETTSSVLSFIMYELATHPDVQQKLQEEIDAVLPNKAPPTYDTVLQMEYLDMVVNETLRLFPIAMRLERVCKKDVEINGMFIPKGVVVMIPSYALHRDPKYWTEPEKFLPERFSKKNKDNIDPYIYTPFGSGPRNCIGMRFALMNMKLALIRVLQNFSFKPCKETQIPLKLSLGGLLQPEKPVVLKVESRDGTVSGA
assay_summary: Inhibition of CYP3A4 at 10 uM
Format: ADME
measured_parameter: inhibition at 10 µM (%)

> print(dat)
                                 mol.smiles  test.result
1  COc1cccc(CN(C(=O)c2cc3ccc(-c4cn[nH]c4)nc3[nH]2)C2CC2)c1           40
2  COc1cccc(CN(CCN2CCCC2)C(=O)c2cc3ccc(-c4cn[nH]c4)cc3[nH]2)c1           59
3  COc1cccc(CNC(=O)c2[nH]c3nc(-c4cn[nH]c4)ccc3c2CN2CCOCC2)c1           46
4  COc1cccc(CNC(=O)c2cn(-c3ccccc3)c3cc(-c4cn[nH]c4)ccc23)c1           93
5  COc1cccc(CNC(=O)c2[nH]c3cc(-c4cn[nH]c4)ccc3c2CN2CCOCC2)c1           86
6  COc1cccc(CNC(=O)c2cn(CCN(C)C)c3cc(-c4cn[nH]c4)ccc23)c1           70
7  COc1cccc(CNC(=O)c2cn(C)c3nc(-c4cn[nH]c4)ccc23)c1           68

I: COc1cccc(CN(CCN(C)C)C(=O)c2cn(C)c3cc(-c4cn[nH]c4)ccc23)c1
II: COc1cccc(CNC(=O)c2[nH]c3cc(-c4cn[nH]c4)ccc3c2CN2CCN(C)CC2)c1
[in] Could you point out whether the larger inhibition at 10 µM belongs to I or to II ? Field: selected label. Fill in the label of the entry you choose.
[out] II
(II: 75%, I: 36%)

====

target_desc: CYP2C9 (Homo sapiens)
Sequence (P11712 whole entry): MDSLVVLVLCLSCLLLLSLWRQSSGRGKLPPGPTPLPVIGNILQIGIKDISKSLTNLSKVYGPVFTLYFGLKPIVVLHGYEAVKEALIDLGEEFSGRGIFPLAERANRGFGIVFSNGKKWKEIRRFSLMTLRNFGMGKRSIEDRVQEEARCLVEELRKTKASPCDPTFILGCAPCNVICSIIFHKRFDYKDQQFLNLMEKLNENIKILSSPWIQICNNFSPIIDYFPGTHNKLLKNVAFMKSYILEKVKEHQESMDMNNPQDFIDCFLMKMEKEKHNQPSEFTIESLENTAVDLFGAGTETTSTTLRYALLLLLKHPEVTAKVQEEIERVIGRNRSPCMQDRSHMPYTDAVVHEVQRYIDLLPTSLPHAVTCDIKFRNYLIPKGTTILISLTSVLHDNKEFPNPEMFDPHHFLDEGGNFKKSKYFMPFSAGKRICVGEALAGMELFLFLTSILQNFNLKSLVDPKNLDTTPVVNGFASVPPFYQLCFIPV
assay_summary: Inhibition of CYP2C9 at 10 uM
Type: ADME
measured_parameter: inhibition at 10 µM (%)

Solved cases below.
> print(dat)
                                 mol.smiles            target.desc   measured.parameter  units.label  test.result
1  COc1cccc(CN(CCCN(C)C)C(=O)c2cn(C)c3cc(-c4cn[nH]c4)ccc23)c1  CYP2C9 (Homo sapiens)  inhibition at 10 µM            %           28
2  COc1cccc(CNC(=O)c2[nH]c3cc(-c4cn[nH]c4)ccc3c2CN2CCCNCC2)c1  CYP2C9 (Homo sapiens)  inhibition at 10 µM            %           53
3  COc1cccc(CNC(=O)c2cc3ccc(-c4cn[nH]c4)nc3n2C)c1  CYP2C9 (Homo sapiens)  inhibition at 10 µM            %           76
4  COc1cccc(CN(C)C(=O)c2cn(C)c3cc(-c4cn[nH]c4)ccc23)c1  CYP2C9 (Homo sapiens)  inhibition at 10 µM            %           93
5  COc1cccc(CN(CCN2CCCC2)C(=O)c2cc3ccc(-c4cn[nH]c4)cc3[nH]2)c1  CYP2C9 (Homo sapiens)  inhibition at 10 µM            %           65
6  COc1cccc(CN(C)C(=O)c2c[nH]c3cc(-c4cn[nH]c4)ccc23)c1  CYP2C9 (Homo sapiens)  inhibition at 10 µM            %           94

A: COc1cccc(CN(C)C(=O)c2cc3ccc(-c4cn[nH]c4)nc3[nH]2)c1
B: COc1cccc(CN(C(=O)c2cc3ccc(-c4cn[nH]c4)nc3[nH]2)C2CC2)c1
C: COc1cccc(CNC(=O)c2[nH]c3cc(-c4cn[nH]c4)ccc3c2CN(C)C)c1
[in] Sort low-to-high on inhibition at 10 µM, please. Your task in answering is to list the labels in the requested order.
[out] C, B, A
(C: 27%, B: 52%, A: 83%)
